tested on: NCI/ADR-RES ovarian; test: NCI tumour cell line growth inhibition, 48 h
recorded_endpoint: TGI

Some compounds with recorded TGI:
COc1ccc(Nc2nnc(-c3nsc4ccccc34)s2)cc1; > 100 µM
COc1ccc(C2=CC(c3ccc4c(c3)OCO4)c3c(c4ccccc4oc3=O)O2)cc1OC (stereo unspecified); > 100 µM
O=C(NC1=NCC(CN2CCN(c3ccccc3)CC2)O1)Nc1ccccc1 (stereo unspecified); > 100 µM
CC/C=C1/C(=O)C=C[C@@H]1C/C=C\CCCC(=O)OC; 14.5 µM
Cc1nn2c(/C=C3\C(=O)Nc4ccc(Cl)cc43)c(C)nc2s1; > 100 µM

The record that follows has no TGI shown yet.
IN: Look up TGI: CCC1C2Cc3ccc(O)cc3C1(CC)CCN2C (stereo unspecified)
OUT: > 100 µM

* * *

Catalogue of TGI values
test system: CAKI-1 renal; experiment: NCI tumour cell line growth inhibition, 48 h

Reference set (4 entries):
CC1=NN(C(=O)c2ccccc2O)C(=O)/C1=C/c1ccco1; 19.7 µM
C(#Cc1ccccc1C#Cc1cccs1)c1cccs1; > 100 µM
COC1CC(OS(=O)(=O)c2ccc([N+](=O)[O-])cc2)C(OC(=O)c2ccccc2)C(C)O1 (stereo unspecified); > 100 µM
O=C(O)c1cc([N+](=O)[O-])cc2c(=O)c3cnccc3[nH]c12; > 100 µM

IN: Give its TGI value. Item: COc1cc2c(cc1C)NC(=O)/C2=C/c1ccccn1
OUT: 9.59 µM

IN: // query: O=C(c1cccs1)N(C(=S)N1CCN(c2ccccn2)CC1)c1ccccc1
OUT: > 100 µM

* * *

Parameter: TGI. Scope: all listed entries.
system: SF-268 CNS; test: NCI tumour cell line growth inhibition, 48 h

C=CCNC(=O)NC(=O)CSC1=NNC2(C(=O)N1)c1ccccc1-c1ccccc12; > 10 µM

IN: # query: TGI of entry C/C(CC(=O)Nc1ccc([N+](=O)[O-])cc1)=N\NC(N)=O
OUT: > 100 µM

IN: Try the molecule CC(C)=CCC/C(C)=C/CC/C(C)=C/CC/C(C)=C/C=C/C=C(\C)CC/C=C(\C)CC/C=C(\C)CCC=C(C)C
OUT: > 81.4 µM

* * *

tested on: HL-60(TB) leukemia; assay: NCI tumour cell line growth inhibition, 48 h; in the data active means GI50 below about 0.43 µM; inactive means the rest
Respond using exactly one of the listed classes: Yes for active, No for inactive

Study these solved cases before continuing.
O=[N+]([O-])O.[Cu+2].[NH-]CC[NH-].[NH-]CC[NH-]; No
Fc1ccc2c(c1)C1=NN(c3ccccc3)C(F)C1CO2 (centres undefined); No
CN(C)CCN1C(=O)c2ccccc2N(C)c2ccccc21; No
FC(F)(F)c1ccc(Nc2nc(-c3c(C(F)(F)F)nc4ccccn34)cs2)cc1; Yes
O=C([CH-]C(=O)c1ccccc1)c1ccccc1.O=C([CH-]C(=O)c1ccccc1)c1ccccc1.[La+3].[OH-].[OH3+]; No

IN: Answer briefly: the call reported for C=C1C(=O)O[C@H]2[C@H]1CC/C(COC(=O)NCc1ccc(Cn3c(=O)sn(CCCl)c3=O)cc1)=C\CC[C@@]1(C)O[C@@H]21 in this assay.
OUT: No

IN: Note, next up: CN(O)c1nc(N(C)O)nc(N2CCOCC2)n1
OUT: No

IN: Another compound: COc1ccc(C(=O)c2cc(OC)c(OC)c(OC)c2)cc1OC(=O)CCl
OUT: Yes

IN: Same read-out for C=C1C(=O)O[C@H]2[C@H]1CC/C(COC(=O)NCc1cn(C)c3ccccc13)=C\CC[C@@]1(C)O[C@@H]21 ?
OUT: No

IN: Would you kindly repeat that for Cc1c(C(N)=O)sc2c1C(=O)N(Cc1ccccc1)C1=NN=C(c3ccc(Cl)cc3)CN12 ?
OUT: No

IN: Another compound to look at: COc1ccc(-c2nc(-c3nc4ccc(OC)cc4[nH]3)c3ccccn23)cc1
OUT: No

IN: Check C=C(C)C(=O)O[C@H]1CC(=C)[C@@H]2C[C@H](O)[C@](O)(CCl)[C@@H]2[C@H]2OC(=O)C(=C)[C@@H]21 too.
OUT: No

IN: Now try COc1ccc2nc3cccc([N+](=O)[O-])c3c(NCCCCCC(=O)O)c2c1 .
OUT: Yes

IN: What do you have for CN[C@@H](C)C(=O)N[C@H](C(=O)N1CCC[C@H]1C(=O)Nc1snnc1-c1ccccc1)C1CCCCC1 ?
OUT: No

* * *

Collected TGI values appear next to each entry.
tested on: DMS 273 small cell lung; experiment: NCI tumour cell line growth inhibition, 48 h

Worked set:
O=c1[nH]c2cc([N+](=O)[O-])ccc2nc1/C(=N/Nc1ccccc1)C(O)c1ccccc1Cl (stereo unspecified); > 100 µM
Nc1ncnc2nc[nH]c12; > 206 µM

IN: Under DMS 273 small cell lung: TGI value of CCOc1ccc(NC(=O)C(=O)CC(=O)c2sc(NNC(C)=O)nc2C)cc1 ?
OUT: > 100 µM

IN: Similarly, Cc1ccc(S(=O)(=O)OC2CSS(=O)CC2OS(=O)(=O)c2ccc(C)cc2)cc1 (stereo unspecified) ?
OUT: 35.3 µM

IN: Another: CCN(CC)c1c(C(=O)/C=C/c2ccc(OC)cc2)c(-c2ccccc2)nn(C)c1=O
OUT: 5.13 µM

IN: Same question for CNS(=O)(=O)NN(C)S(=O)(=O)c1ccccc1 please.
OUT: > 100 µM

IN: Can you check COc1cc2c(oc(=O)c3c4oc([Si](C)(C)C)cc4cc(OC)c23)c2cccc(OCc3ccccc3)c12 next?
OUT: 72.8 µM

IN: And what about the molecule COc1ccc(Nc2nnc(-c3nsc4ccccc34)s2)cc1 ?
OUT: > 100 µM

IN: Also Cc1cc(=O)n(-c2ccccc2C)c(C)n1 , if possible.
OUT: > 100 µM

IN: // next record Cn1cc(C(=O)NCCC(=N)N)cc1NC(=O)C1=[N+](C)C=C(NC(=O)c2cccc(C(=O)NC3=CC(C(=O)Nc4cc(C(=O)NCCC(=N)N)cn4C)=[N+](C)C3)c2)C1
OUT: > 100 µM

IN: Thanks! And CN(C)CC/C(=N\Nc1ccc([N+](=O)[O-])cc1)c1ccccc1 ?
OUT: 22.3 µM

* * *

Catalogue of GI50 readings, one per entry.
tested on: EKVX NSCLC; experiment: NCI tumour cell line growth inhibition, 48 h

Past entries and their recorded results:
CC/C=C1/C(=O)C=C[C@@H]1C/C=C\CCCC(=O)OC; 4.8 µM
C[C@H]1[C@H](C)CC[C@]2(CO)CC[C@]3(C)C(=CC[C@@H]4[C@@]5(C)CCCNC(C)(C)[C@@H]5CC[C@]43C)[C@H]12; 1.66 µM
COc1ccc(-c2cn(-c3cc(OC)c(OC)c(OC)c3)c(SCc3ccccc3)n2)cc1OC; > 100 µM
COc1ccc(-c2cc(=O)[nH]c3c(OC)c4ccccc4c(OC)c23)cc1; 2.87 µM
CC(C)[C@H](N)C(=O)N1CCC[C@H]1B(O)O; > 100 µM

Please turn your attention to the following entry.
IN: Identify the measured GI50 of Cc1c(C(N)=O)sc2c1C(=O)N(Cc1ccccc1)C1=NN=C(c3ccc(Cl)cc3)CN12 for EKVX NSCLC.
OUT: 4.7 µM

* * *

test system: SF-268 CNS; experiment: NCI tumour cell line growth inhibition, 48 h
recorded_endpoint: TGI

N#Cc1c(-c2ccccc2)cc(-c2ccccc2)n(C2OC(CO)C(O)C(O)C2O)c1=S (stereo not given); > 100 µM
O=c1[nH]c2cc([N+](=O)[O-])ccc2nc1/C(=N/Nc1ccccc1)C(O)c1ccccc1Cl (stereo not given); > 100 µM
CCCCCCCCCCCCCCCCCCNC(=O)C(N)Cc1ccc(OCc2ccccc2)cn1 (stereo not given); 43.4 µM
C=C1C(=O)O[C@H]2[C@H]1CC/C(COC(=O)NCc1ccc(Cn3c(=O)sn(CCCl)c3=O)cc1)=C\CC[C@@]1(C)O[C@@H]21; 14.6 µM
Clc1ccc(C2SCc3nc4ccccc4n32)c(Cl)c1 (stereo not given); 31.1 µM
O=c1oc2ccc3ccccc3c2cc1-c1cn2ccccc2n1; > 100 µM
CC(C)Cn1cnc2c(NCC(C)O)nc3ccccc3c21 (stereo not given); > 100 µM
COc1ccc(-c2cc(=O)[nH]c3c(OC)c4ccccc4c(OC)c23)cc1; > 100 µM
Oc1c(C(Nc2cccc3cccnc23)c2ccccc2)ccc2cccnc12 (stereo not given); > 100 µM
C=CCOc1cccc(C2(O)c3ccccc3C3=NCCCN32)c1 (stereo not given); > 100 µM

IN: Reported TGI for C=CCNC1=C2C[C@@H](C)C[C@@H](OC)[C@H](OC(=O)CCN)[C@H](C)/C=C(\C)[C@@H](OC(N)=O)[C@H](OC)/C=C\C=C(/C)C(=O)NC(=CC1=O)C2=O : what is it?
OUT: 25.5 µM

IN: Consider next the compound CC(=O)C(=C(c1ccccc1)c1ccccc1)c1ccccc1 in the same way.
OUT: > 100 µM

IN: Also C=CCN1C(=O)/C(=C/c2ccco2)N=C1SC/C=C/C , if possible.
OUT: > 100 µM
